Biological target: mutant form of the human GPR119 receptor (Homo sapiens, UniProt Q8TDV5, S329A/T327A)
Sequence (Q8TDV5 with tags, fused parts or gaps T327A/S329A): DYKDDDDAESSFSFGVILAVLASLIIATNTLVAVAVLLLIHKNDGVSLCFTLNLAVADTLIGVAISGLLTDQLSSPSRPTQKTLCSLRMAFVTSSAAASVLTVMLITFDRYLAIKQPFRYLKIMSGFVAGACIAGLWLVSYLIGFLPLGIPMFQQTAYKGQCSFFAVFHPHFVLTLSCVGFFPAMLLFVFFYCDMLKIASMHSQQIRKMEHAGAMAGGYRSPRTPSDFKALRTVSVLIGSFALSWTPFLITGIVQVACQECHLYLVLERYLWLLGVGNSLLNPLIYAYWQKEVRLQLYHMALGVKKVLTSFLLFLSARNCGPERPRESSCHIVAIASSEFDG
Assay: LANCE cAMP-384 assay in HEK293 cells stably expressing a mutant form of the human GPR119 receptor
Details: cAMP accumulation, GPR119 stable HEK293 cells, LANCE kit, 20 min at 37° C.
pEC50: −log10 of the molar value.
Parameter threshold = 7. Response is rule met when pEC50 meets or exceeds it, else rule not met.

Known results for compounds:
compound=Cc1nccn1-c1ccc(C(=O)N(C2CC2)C2CCN(c3ncc(Cl)cn3)CC2)cn1 subject_of_test="mutant form of the human GPR119 receptor (Homo sapiens, UniProt Q8TDV5, S329A/T327A)" group="rule not met"
compound=Cc1ncn(-c2cnc(C(=O)N(C3CC3)C3CCN(c4ncc(C(F)(F)F)cc4F)CC3)cn2)n1 subject_of_test="mutant form of the human GPR119 receptor (Homo sapiens, UniProt Q8TDV5, S329A/T327A)" group="rule met"

Could you verify whether the entry CCc1cnc(N2CCC(N(C(=O)c3cn(-c4ccc(S(C)(=O)=O)cc4F)cn3)C3CC3)CC2)nc1 shows pEC50 of no less than 7? rule not met

Could you verify whether the entry Cc1ncnn1-c1ccc(C(=O)N(C2CC2)C2CCN(c3ncc(C(F)(F)F)cc3F)CC2)cn1 shows pEC50 of no less than 7? rule met

Could you verify whether the entry Cc1nccn1-c1ncc(C(=O)N(C2CC2)C2CCN(c3nc(C(C)C)no3)CC2)cn1 shows pEC50 of no less than 7? rule not met

Could you verify whether the entry CCc1cnc(N2CC[C@@H](N(C(=O)c3ccc(-n4ncnc4C)nc3)C3CC3)[C@@H](F)C2)nc1 (single isomer, unassigned) shows pEC50 of no less than 7? rule met

Could you verify whether the entry Cc1nccn1-c1cnc(C(=O)N(C2CC2)C2CCN(c3nc(C(C)C)no3)CC2)cn1 shows pEC50 of no less than 7? rule not met

Could you verify whether the entry Cc1ncn(-c2cnc(C(=O)N(C3CC3)[C@@H]3CCN(c4ccc(C(F)(F)F)cn4)C[C@@H]3F)cn2)n1 (single isomer, unassigned) shows pEC50 of no less than 7? rule met

Could you verify whether the entry CCc1cnc(N2CC[C@@H](N(C(=O)c3cn(-c4ccc(S(C)(=O)=O)cc4F)c(C)n3)C3CC3)[C@@H](F)C2)nc1 (single isomer, unassigned) shows pEC50 of no less than 7? rule not met

Could you verify whether the entry Cc1nccn1-c1ccc(C(=O)N(C2CC2)C2CCN(c3nc(C(C)C)no3)CC2)cn1 shows pEC50 of no less than 7? rule not met

Could you verify whether the entry Cc1nccn1-c1ncc(C(=O)N(C2CC2)C2CCN(c3ncc(Cl)cn3)CC2)cn1 shows pEC50 of no less than 7? rule met

Could you verify whether the entry Cc1nnnn1-c1ccc(C(=O)N(C2CC2)[C@@H]2CCN(c3ccc(C(F)(F)F)cn3)C[C@@H]2F)cn1 (single isomer, unassigned) shows pEC50 of no less than 7? rule met

Sourced from patent US8921398B2
